# Tested on: human bitter taste detection (sensory panel)
# assay-remarks: Human bitter taste detection threshold, three-alternative forced choice (3-AFC), BET method
# Assay type: in vivo
# recorded-conditions: Figure 3; aqueous solution, 32 panelists, group BET
Structures can show the parent of a compound that is named as a salt.
experimental-readout: Human Bitter Taste Detection Threshold (mol/L)

INSERT INTO measurements (compound, experimental_readout, recorded_measurement) VALUES
  ('Cc1ncc(C[n+]2csc(CCO)c2C)c(N)n1 [Vitamin B1, thiamine hydrochloride]', 'Human Bitter Taste Detection Threshold', 0.0011),
  ('NC(=O)c1cccnc1 [Vitamin B3, niacinamide]', 'Human Bitter Taste Detection Threshold', 0.0055),
  ('Cc1ncc(CO)c(CO)c1O [Vitamin B6, pyridoxine hydrochloride]', 'Human Bitter Taste Detection Threshold', 0.0052),
  ('Cc1cc2nc3c(=O)[nH]c(=O)nc-3n(C[C@H](O)[C@H](O)[C@H](O)COP(=O)(O)O)c2cc1C [Vitamin B2, riboflavin phosphate]', 'Human Bitter Taste Detection Threshold', 0.00065);

* * *

# target-system: TAS2R10 (Homo sapiens)
# Construct: expressed in transfected cells; host or cells: HEK293T cells stably expressing Gα16gust44
# Sequence (Q9NYW0 whole entry): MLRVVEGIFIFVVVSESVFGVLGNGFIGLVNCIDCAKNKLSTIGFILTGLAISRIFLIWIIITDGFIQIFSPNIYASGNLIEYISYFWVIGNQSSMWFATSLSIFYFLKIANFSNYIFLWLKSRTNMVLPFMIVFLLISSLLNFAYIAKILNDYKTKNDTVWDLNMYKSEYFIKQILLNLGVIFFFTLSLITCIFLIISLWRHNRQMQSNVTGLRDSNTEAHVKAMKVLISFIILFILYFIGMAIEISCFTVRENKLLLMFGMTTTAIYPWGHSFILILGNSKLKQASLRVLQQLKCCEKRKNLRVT
# assay-remarks: Calcium mobilization assay, cells transiently expressing TAS2R10
# Assay type: cell-based
# recorded-conditions: read-out: EC50 (half-maximal TAS2R10 activation); TAS2R10-expressing HEK293T cells, Fluo-4 calcium response
experimental-readout: EC50

INSERT INTO results (molecule, recorded_measurement) VALUES
  ('C=C1CC[C@H](O)C/C1=C/C=C1\CCC[C@]2(C)[C@@H]([C@H](C)CCCC(C)C)CC[C@@H]12 [Vitamin D, cholecalciferol]', '250 µM');

* * *

# target-system: TAS2R7 (Homo sapiens)
# Sequence (Q9NYW3 whole entry): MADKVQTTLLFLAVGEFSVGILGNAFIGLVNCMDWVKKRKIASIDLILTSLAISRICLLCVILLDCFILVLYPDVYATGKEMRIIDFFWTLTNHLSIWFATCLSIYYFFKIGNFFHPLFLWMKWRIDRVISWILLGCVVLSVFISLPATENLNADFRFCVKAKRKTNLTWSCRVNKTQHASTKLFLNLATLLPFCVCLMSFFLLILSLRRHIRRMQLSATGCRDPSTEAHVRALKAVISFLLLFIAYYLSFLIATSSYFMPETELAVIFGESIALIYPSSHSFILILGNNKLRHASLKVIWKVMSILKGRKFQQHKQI
# assay-remarks: Calcium mobilization assay, cells transiently expressing TAS2R7
# Type: cell-based
# Design: expressed in transfected cells; host or cells: HEK293T cells stably expressing Gα16gust44
# recorded-conditions: TAS2R7-expressing HEK293T cells, Fluo-4 calcium response; read-out: EC50 (half-maximal TAS2R7 activation)
pEC50: −log10 of the molar value. Structures can show the parent of a compound that is named as a salt.
experimental-readout: pEC50

INSERT INTO assay_data (compound, target_system, recorded_measurement) VALUES
  ('Cc1ncc(CO)c(CO)c1O [Vitamin B6, pyridoxine hydrochloride]', 'TAS2R7 (Homo sapiens)', 1.59);
